Origin of values: patent US20210087281A1

Biological target: native mouse MET on living cells (mouse, UniProt P16056 25-1379)
Assay: cell-based or functional assay
EXPERIMENTAL ENDPOINT: scatter score 0-4, MLP29, 0.111 nM (score)
Express your answer in score, writing the number without its unit.

>>> numeric_readout("76H10 chimeric llama-human IgG1 mAb (antibody, V domains shown, llama VH on human IgG1 CH1-CH2-CH3, llama VL on human lambda CL) VH: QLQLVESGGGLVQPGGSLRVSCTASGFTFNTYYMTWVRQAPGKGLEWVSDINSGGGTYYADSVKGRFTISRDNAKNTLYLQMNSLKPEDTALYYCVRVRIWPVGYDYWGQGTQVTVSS VL: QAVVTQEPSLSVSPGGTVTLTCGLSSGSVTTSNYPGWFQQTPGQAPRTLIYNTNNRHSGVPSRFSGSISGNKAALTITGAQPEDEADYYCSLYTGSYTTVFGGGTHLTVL")
0

Moving on to the next binder.
INPUT: So what does the record say about scatter score 0-4, MLP29, 0.111 nM for 74C8 chimeric llama-human IgG1 mAb (antibody, V domains shown, llama VH on human IgG1 CH1-CH2-CH3, llama VL on human lambda CL) VH: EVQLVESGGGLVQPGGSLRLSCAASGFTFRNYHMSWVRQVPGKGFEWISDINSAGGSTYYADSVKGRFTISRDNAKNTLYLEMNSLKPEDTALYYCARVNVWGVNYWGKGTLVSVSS VL: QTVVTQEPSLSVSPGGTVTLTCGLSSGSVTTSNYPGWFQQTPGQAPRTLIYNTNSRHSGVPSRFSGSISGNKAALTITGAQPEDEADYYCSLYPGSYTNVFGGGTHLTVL ?
OUTPUT: 2
